As a worked illustration, we turn to pKi data collected for Sodium-dependent dopamine transporter (Rattus norvegicus, UniProt P23977).
Keep it numeric: pKi is minus log10 of the concentration in mol/L.

{"COMPOUND": "Cc1ccc(C(OCCN2C3CCC2CC(Cc2ccccc2)C3)c2ccc(C)cc2)cc1 (centres undefined)", "pKi": 6.66}
{"COMPOUND": "c1ccc(CN2C3CCC2CC(CCOC(c2ccccc2)c2ccccc2)C3)cc1 (centres undefined)", "pKi": 7.00}
{"COMPOUND": "Clc1ccc(C(OCCN2C3CCC2CC(Cc2ccccc2)C3)c2ccccc2)cc1 (centres undefined)", "pKi": 6.70}
{"COMPOUND": "COc1ccc(C(OCCN2C3CCC2CC(Cc2ccccc2)C3)c2ccc(OC)cc2)cc1 (centres undefined)", "pKi": 6.87}
{"COMPOUND": "Fc1ccc(C(OCCN2C3CCC2CC(Cc2ccccc2)C3)c2ccc(F)cc2)cc1 (centres undefined)", "pKi": 6.84}

Known value: Sodium-dependent dopamine transporter (Rattus norvegicus, UniProt P23977) pKi of the compound Fc1ccc(C(OCCN2CCC(CCCc3ccccc3)CC2)c2ccc(F)cc2)cc1 equals 6.23

Known value: Sodium-dependent dopamine transporter (Rattus norvegicus, UniProt P23977) pKi of the compound Fc1ccc(C(OCCC2CCN(CCCc3ccccc3)CC2)c2ccc(F)cc2)cc1 equals 7.60

Known value: Sodium-dependent dopamine transporter (Rattus norvegicus, UniProt P23977) pKi of the compound c1ccc(CC2CC3CCC(C2)N3CCOC(c2ccccc2)c2ccccc2)cc1 (centres undefined) equals 7.01

Known value: Sodium-dependent dopamine transporter (Rattus norvegicus, UniProt P23977) pKi of the compound Clc1ccc(C(OCCN2C3CCC2CC(Cc2ccccc2)C3)c2ccc(Cl)cc2)cc1 (centres undefined) equals 6.46
